The origin of these recorded values is patent US20240301052A1.

Target: T1, human SLC34A2 (human, UniProt O95436 1-690)
T1 construct: whole, on cells; also called human solute carrier 34 A2; NaPi2b
T1 sequence (looked up): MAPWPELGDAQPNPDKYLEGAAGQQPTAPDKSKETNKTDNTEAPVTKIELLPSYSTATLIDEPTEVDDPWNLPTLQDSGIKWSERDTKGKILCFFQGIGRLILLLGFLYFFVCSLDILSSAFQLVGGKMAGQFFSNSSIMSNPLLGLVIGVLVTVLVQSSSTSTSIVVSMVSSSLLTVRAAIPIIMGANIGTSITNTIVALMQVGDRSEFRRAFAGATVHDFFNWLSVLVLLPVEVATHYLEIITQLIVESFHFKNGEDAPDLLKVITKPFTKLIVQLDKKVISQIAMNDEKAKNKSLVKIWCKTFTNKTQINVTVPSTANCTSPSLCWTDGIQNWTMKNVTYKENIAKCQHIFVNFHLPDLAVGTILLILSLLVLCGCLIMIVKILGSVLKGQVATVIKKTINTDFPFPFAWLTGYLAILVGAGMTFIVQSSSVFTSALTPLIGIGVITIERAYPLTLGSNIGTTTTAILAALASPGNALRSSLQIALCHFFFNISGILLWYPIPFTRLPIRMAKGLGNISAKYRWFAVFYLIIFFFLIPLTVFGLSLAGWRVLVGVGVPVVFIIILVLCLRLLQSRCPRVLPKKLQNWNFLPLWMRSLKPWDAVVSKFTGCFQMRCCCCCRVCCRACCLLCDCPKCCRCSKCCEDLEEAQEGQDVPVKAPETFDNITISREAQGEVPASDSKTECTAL
Assay: FACS, OVCAR3 cells
Quick list: Top (MFI) per entry.
Give the quantity in MFI, number only.

Some binders with recorded Top (MFI):
If you can, please state the reported Top (MFI) value of 91C9F1.p1.z11 hIgG1 (antibody, V domains shown, humanized hIgG1) VH: QVQLVQSGAEVVKPGSSVKVSCKTSGFFFTEYIIHWVRQSPGQGLEWIGGIIPNNDVTNYKQNFRGRATLTADKSTSTAYMELSSLRSEDTAVYYCARWRNAYYSAMDSWGQGTTVTVSS VL: DIQVTQSPSSLSTSVGDRVTITCTASQDVGTAVAWYQQKPGKSPKLLIYWASTRHTGVPERFTGSGSGTDFTLTISSVQPEDVATYFCQQYRTSPLTFGVGTKVEIK .
31000

Lookup 91C9F1.p1.z5 hIgG1 (antibody, V domains shown, humanized hIgG1) VH: QVQLVQSGAEVKKPGSSVKVSCKTSGFFFTEYIIHWVRQAPGQGLEWIGGIIPNNDVTNYKQNFRGRVTLTADKSTSTAYMELSSLRSEDTAVYYCARWRNAYYSAMDSWGQGTTVTVSS VL: DIQMTQSPSSLSASVGDRVTITCTASQDVGTAVAWYQQKPGKVPKLLIYWASTRHTGVPSRFSGSGSGTDFTLTISSLQPEDVATYYCQQYRTSPLTFGGGTKVEIK
36900

Could you now consider this next binder?
Top (MFI) for 91C9F1.p1.z7 hIgG1 (antibody, V domains shown, humanized hIgG1) VH: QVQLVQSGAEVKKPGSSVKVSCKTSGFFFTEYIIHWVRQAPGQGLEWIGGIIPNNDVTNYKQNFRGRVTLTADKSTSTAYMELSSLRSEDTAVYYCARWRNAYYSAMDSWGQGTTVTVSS VL: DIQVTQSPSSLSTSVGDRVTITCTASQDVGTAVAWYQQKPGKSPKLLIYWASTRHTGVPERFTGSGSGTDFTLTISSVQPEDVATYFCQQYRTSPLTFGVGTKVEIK ?
37400
